Listed here: items and their measured IC50.
- Test system: P388
- Run Description: Cytotoxicity against mouse P388 cells after 72 hrs by MTT assay
- Type: functional, cell-based
- Assay Context: P388, 72 h

Compound: COc1cccc(/C=C/c2ccc(O)cc2)c1 [(E)-5-METHOXY-4'-STILBENOL]
Censoring Sign: =
IC50 [µg/mL]: 9.9
//
Compound: COc1cccc(CCc2ccc(O[Si](C)(C)C(C)(C)C)cc2)c1
Censoring Sign: >
IC50 [µg/mL]: 25
//
Compound: COc1cccc(CCc2ccc(O)cc2)c1
Censoring Sign: >
IC50 [µg/mL]: 25
//
Compound: CO[C@@]12[C@H](COC(N)=O)C3=C(C(=O)C(C)=C(N)C3=O)N1C[C@@H]1N[C@@H]12
Censoring Sign: =
IC50 [µg/mL]: 0.02
//
Compound: COc1cccc(/C=C\c2ccc(O)cc2)c1
Censoring Sign: =
IC50 [µg/mL]: 16.3

Sourced from ChEMBL document CHEMBL1147364
